Origin of the recorded values: patent US9115347B2

Assay: Natural pH of the compound in solution
Type: physicochemical
Details: compound solution 1 g/L
Assign Natural pH to each entry below.
Note: the reply should be a number with no unit written.

(Q) Assign Natural pH to the following record: O=S(=O)([O-])[O-].[Mg+2] [Magnesium sulfate]
(A) 5.0

(Q) Assign Natural pH to the following record: O.O.O.O.O.O.[Cl-].[Cl-].[Co+2] [Cobalt chloride, Cobalt chloride 6 Hydrate Crystal]
(A) 4.8

(Q) Assign Natural pH to the following record: [Ca+2].[Cl-].[Cl-] [Calcium chloride, Calcium chloride Anhydrous]
(A) 4.7

---

Assign cell growth (OD600 nm) to each entry below.
Test system: Clostridium difficile, ATCC No. 43255
Assay type: cell-based
Conditions: 12 hours

(Q) Assign cell growth (OD600 nm) to the following record: N[C@@H](Cc1ccc(O)cc1)C(=O)O [Tyrosine, L-Tyrosine]
(A) 2.41

(Q) Assign cell growth (OD600 nm) to the following record: OC[C@H]1O[C@@](CO)(O[C@H]2O[C@H](CO)[C@@H](O)[C@H](O)[C@H]2O)[C@@H](O)[C@@H]1O [Sucrose]
(A) 2.74

(Q) Assign cell growth (OD600 nm) to the following record: O=C[C@H](O)[C@@H](O)[C@H](O)CO [D(+)Xylose]
(A) 3.34

(Q) Assign cell growth (OD600 nm) to the following record: O[C@H]1[C@H](O)[C@@H](O)[C@H](O)[C@@H](O)[C@H]1O [myo-Inositol]
(A) 2.61

(Q) Assign cell growth (OD600 nm) to the following record: OC[C@H]1O[C@@H](O[C@H]2[C@H](O)[C@@H](O)[C@@H](O)O[C@@H]2CO)[C@H](O)[C@@H](O)[C@H]1O [α-Lactose]
(A) 2.57

(Q) Assign cell growth (OD600 nm) to the following record: [N-]=[N+]=CC(=O)OC[C@H](N)C(=O)O [Azaserine, reference compound]
(A) 2.33
